Here, each record is paired with measured Phytotoxicity Rating, Corn data.
System: Corn
Assay: Phytotoxicity, corn
Settings: 2500 ppm, 10 days
I'd appreciate a reply containing only the number, no unit.

Worked examples, 2 compounds total:
>  <compound>
Cc1cc(C)c(C2=C(OC(=O)C(C)C)c3ccccc3C2=O)c(C)c1

>  <Phytotoxicity Rating, Corn>
4

$$$$
>  <compound>
CCCCC(CC)C(=O)OC1=C(c2c(C)cc(C)cc2C)C(=O)c2ccccc21 (stereo not drawn)

>  <Phytotoxicity Rating, Corn>
1

$$$$

Need Phytotoxicity Rating, Corn of Cc1cc(C)c(C2=C(OC(=O)C3CC4C=CC3C4)c3ccccc3C2=O)c(C)c1 (stereo not drawn) , thanks. 1

Repeat for the following compound: COCC(=O)OC1=C(c2c(C)cc(C)cc2C)C(=O)c2ccccc21 1

Repeat for the following compound: CCCCCCCCCCCCOC(=O)OC1=C(c2c(C)cc(C)cc2C)C(=O)c2ccccc21 2

Repeat for the following compound: CCCCC(CC)COC(=O)OC1=C(c2c(C)cc(C)cc2C)C(=O)c2ccccc21 (stereo not drawn) 2

Repeat for the following compound: Cc1cc(C)c(C2=C(OC(=O)CCCCl)c3ccccc3C2=O)c(C)c1 2
